- Test system: LNCaP tumor-transplanted mouse
- protocol.summary: Internal radioactivity distribution using LNCaP tumor-transplanted mouse
- Type: in vivo
- run.conditions: 192 h after administration
- Protocol: The animal test was performed in compliance with the guidelines of Kyoto University Animal Experiment Committee. […] LNCaP or PC-3 tumor-implanted mice were administered saline solutions (185 kBq, 100 μL) of [^111In]In-PSMA-DA1 or [^111In]In-PSMA-DB from the tail vein (n=3 each). […] Thereafter, blood and each organ were recovered, and the mass and radioactivity of the organs were measured. […]
measure: Blood (% ID/g)
Numbers only; they are read as % ID/g.

# molecule, value.units, Blood
data = [
    ("O=C([O-])CN(Cc1cccc(C(=O)[O-])n1)C[C@H](Cc1ccc(NC(=O)[C@H](CCCCNC(=O)CCC(=O)NCCCC[C@H](NC(=O)N[C@@H](CCC(=O)O)C(=O)O)C(=O)O)NC(=O)COCCOCCOCC(=O)N[C@@H](CCCCNC(=O)CCCc2ccc(I)cc2)C(=O)O)cc1)N(CC(=O)[O-])Cc1cccc(C(=O)[O-])n1.[111In+3] [[^111In]In-Octapa-3]", "% ID/g", 0.03),
    ("O=C([O-])CN(Cc1cccc(C(=O)[O-])n1)C[C@H](Cc1ccc(NC(=O)[C@H](CCCCNC(=O)CCC(=O)NCCCC[C@H](NC(=O)N[C@@H](CCC(=O)O)C(=O)O)C(=O)O)NC(=O)CCCc2ccc(I)cc2)cc1)N(CC(=O)[O-])Cc1cccc(C(=O)[O-])n1.[111In+3] [[^111In]In-Octapa-2]", "% ID/g", 0.01),
]

Shifting focus to the molecule that follows.
Blood for LNCaP tumor-transplanted mouse with input O=C([O-])CN1CCN(C(CCC(=O)NCCCC[C@H](NC(=O)N[C@@H](CCC(=O)O)C(=O)O)C(=O)O)C(=O)[O-])CCN(CC(=O)[O-])CCN(C(CCC(=O)Nc2ccccc2)C(=O)[O-])CC1.[111In+3] (stereo partly drawn) [[^111In]In-PSMA-DB, reference compound] equals 0.07
